Would you mind telling me the reported CC50 of each entry?
- System: Huh-7
- Assay procedure: Cytotoxicity against human HuH7 cells assessed as reduction of 50% rRNA level after 96 hrs
- Assay type: cell-based
- Experimental conditions: huh-7, 96 h

{"columns": ["Compound", "Target of assay", "CC50"],
 "data": [
  ["C[C@@]1(F)[C@H](O)[C@@H](CO)O[C@H]1n1cc(C#Cc2ccccc2)c2c(N)ncnc21", "Huh-7", "< 10 µM"]
]}

Please look at the items below and tell me CC50 for each one, in order.
1. C=Cc1cn([C@@H]2O[C@H](CO)[C@@H](O)[C@@]2(C)F)c2ncnc(N)c12
2. CNc1ncnc2c1c(F)cn2[C@@H]1O[C@H](CO)[C@@H](O)[C@@]1(C)F
3. C[C@@]1(F)[C@H](O)[C@@H](CO)O[C@H]1n1cc(I)c2c(N)nc(N)nc21
4. CCOC(=O)[C@H](C)NP(=O)(OC[C@H]1O[C@@H](n2cc(I)c3c(N)ncnc32)[C@](C)(F)[C@@H]1O)Oc1ccccc1 (stereo partly drawn)
5. C[C@@]1(F)[C@H](O)[C@@H](CO)O[C@@H]1n1cc(C#Cc2ccccc2)c2c(N)ncnc21
6. C[C@@]1(O)[C@H](O)[C@@H](CO)O[C@H]1n1ccc(N)nc1=O

1: 4.5 µM; 2: > 10 µM; 3: > 10 µM; 4: > 10 µM; 5: > 10 µM; 6: > 10 µM

Please look at the items below and tell me CC50 for each one, in order.
1. CCOC(=O)[C@H](C)NP(=O)(OC[C@H]1O[C@@H](n2cc(F)c3c(N)ncnc32)[C@](C)(F)[C@@H]1O)Oc1ccccc1 (stereo partly drawn)
2. C#Cc1cn([C@H]2O[C@H](CO)[C@@H](O)[C@@]2(C)F)c2nc(N)nc(N)c12
3. CCOC(=O)[C@H](C)NP(=O)(OC[C@H]1O[C@@H](n2ccc3c(N)nc(N)nc32)[C@](C)(F)[C@@H]1O)Oc1ccccc1 (stereo partly drawn)
4. C[C@@]1(F)[C@H](O)[C@@H](CO)O[C@H]1n1cc(Br)c2c(N)ncnc21
5. C[C@@]1(F)[C@H](O)[C@@H](CO)O[C@@H]1n1cc(F)c2c(N)ncnc21
6. C=Cc1cn([C@H]2O[C@H](CO)[C@@H](O)[C@@]2(C)F)c2ncnc(N)c12
7. COc1ncnc2c1ccn2[C@H]1O[C@H](CO)[C@@H](O)[C@@]1(C)F
8. C[C@@]1(F)[C@H](O)[C@@H](CO)O[C@H]1n1ccc2c(N)nc(N)nc21

1: > 10 µM; 2: > 10 µM; 3: > 10 µM; 4: < 10 µM; 5: > 10 µM; 6: 8.3 µM; 7: > 10 µM; 8: > 10 µM

Please look at the items below and tell me CC50 for each one, in order.
1. C[C@@]1(F)[C@H](O)[C@@H](CO)O[C@H]1n1ccc2c(N)ncnc21
2. COC(=O)/C=C/c1cn([C@H]2O[C@H](CO)[C@@H](O)[C@@]2(C)F)c2ncnc(N)c12
3. Cc1cn([C@H]2C[C@H](N=[N+]=[N-])[C@@H](CO)O2)c(=O)[nH]c1=O

["> 10 µM", "> 10 µM", "> 10 µM"]
